Numbers sourced from patent US20190338038A1.

- Assay Target: T1, human interleukin 1 receptor accessory protein, membrane-bound form on cells (human, UniProt Q9NPH3 21-570)
- T1 sequence: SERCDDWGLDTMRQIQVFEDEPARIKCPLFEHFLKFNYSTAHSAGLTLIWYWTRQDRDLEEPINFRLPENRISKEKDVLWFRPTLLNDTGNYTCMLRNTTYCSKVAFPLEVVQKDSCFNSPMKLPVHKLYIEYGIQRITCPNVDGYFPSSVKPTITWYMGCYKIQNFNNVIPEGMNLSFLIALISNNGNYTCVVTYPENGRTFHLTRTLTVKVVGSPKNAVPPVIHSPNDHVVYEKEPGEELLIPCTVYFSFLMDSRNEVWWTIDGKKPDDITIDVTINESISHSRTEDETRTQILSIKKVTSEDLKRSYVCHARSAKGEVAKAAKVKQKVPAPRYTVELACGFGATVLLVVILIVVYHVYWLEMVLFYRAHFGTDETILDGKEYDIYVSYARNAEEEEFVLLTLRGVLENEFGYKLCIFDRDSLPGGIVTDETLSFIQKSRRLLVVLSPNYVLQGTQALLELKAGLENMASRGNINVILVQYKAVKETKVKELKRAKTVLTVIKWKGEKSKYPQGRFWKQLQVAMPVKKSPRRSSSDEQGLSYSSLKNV
- Experimental Protocol: cell-based or functional assay
Metric Name: % Inhibition at 10 ug/mL of IL-1β-induced NF-κB signaling, HEK-Blue IL-1β cells (%)
One number for each entry, in %.

anti-IL1-RAP antibody clone 50.6C12 (antibody, V domains shown, Mouse monoclonal antibody) VH: EVQLQQSGPELVKPGDSVKMSCKASGYTFTDYYMDWVKQSHGKSLEWIGYIYPHNGGTTYNQKFKGKATLTVDKSSSTAYMELHSLTSEDSAVYYCARSPFNYKDPMDWWGQGTSVTVSS VL: DIQMTQSPASLSASVGETVTITCRASGNIHNYLAWYQQKQGKSPHLLVYNAETLADGVPSRFSGSGSGTQYSLKINSLQPEDFGTYYCQHFWSTPWTFGGGTKLEIK | 69

Query string: Tell me the measured % Inhibition at 10 ug/mL of IL-1β-induced NF-κB signaling, HEK-Blue IL-1β cells of anti-IL1-RAP antibody clone 50.3G7 (antibody, V domains shown, Mouse monoclonal antibody) VH: QIQLVQSGPELKKPGETVKISCKASGYTFTNYGMHWVKQSPGEGLKWMGWINTYTGEPTYADDFKGRFGFSLETSASSAYLQINDLKNEDMATYFCARYYGNFDYWGQGTTLTVSS VL: DIVLTQSPATLSVTPGDSVSLSCRASQSISNNLHWYQQKSHESPRLLIKYASQSISGIPSRFSGSGSGTDFTLSINSVETEDFGVYFCQQSHNWPHTFGGGTKLEIKR , please.
Result string: 48
